Numbers sourced from the supplement of paper PMC12042874.

Assay: amyloid nucleation score (Sup35N fusion, yeast selection) (log enrichment); library NNK2; higher = more nucleation; inactive = no reads after selection;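 note: zero at mode of non-aggregating sequences after 7 days selection at 30°C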
Quick rule for you: amyloid nucleation score at 1 or higher means MET, lower means NOT MET.

| substance | classification |
| --- | --- |
| RLTQCLVHRPYPV | NOT MET |
| GPSDLIFLPGLMAPRS | NOT MET |
| IRSFEFHNAWMCVYIWSKLY | NOT MET |
| KLGDWARRPCSSGPARTYGR | NOT MET |
| STGMRGKYVTFFCSSVIFRQ | MET |
| GNVITDGESMMDCKGTMRSC | NOT MET |
| IYYGSRISPTWAGRLLCGER | NOT MET |
| LEVRSAWGHLPFMSPEGL | NOT MET |

QUERY: # check: amyloid nucleation score of `SVYPTSGRYYLYRSLIFVGD` is greater than or equal to 1
RESULT: NOT MET

QUERY: # check: amyloid nucleation score of `ISGRLNRDGGSDKMSAEREG` is greater than or equal to 1
RESULT: MET

QUERY: # check: amyloid nucleation score of `NRPLCSFDTEFDLYEQIHLR` is greater than or equal to 1
RESULT: MET

QUERY: # check: amyloid nucleation score of `PSRMCSCCPLRGSCKDMACR` is greater than or equal to 1
RESULT: NOT MET

QUERY: # check: amyloid nucleation score of `EGRVHTSLLVVCVTHTRKYM` is greater than or equal to 1
RESULT: NOT MET

QUERY: # check: amyloid nucleation score of `TRPVNLDLIFISSG` is greater than or equal to 1
RESULT: MET

* * *

Test: amyloid nucleation score (Sup35N fusion, yeast selection) (log enrichment); library NNK2; higher = more nucleation; inactive = no reads after selection
endpoint: amyloid nucleation score

| substance | reported |
| --- | --- |
| ANPQSKLLNVSFIGTVQGWV | 3.04 |
| PVIYSF | 7.12 |
| IFYGRYGAILWGAKCLY | 1.96 |
| LDNWEL | 0.145 |
| VSGMPIKMR | 0.886 |
| YYQRLRVHLYADIELYATLC | 0.266 |

QUERY: Give reported amyloid nucleation score value for `QCMVVQYD`
RESULT: -0.394

QUERY: Give reported amyloid nucleation score value for `GVVISCWRLWWDTDMMHR`
RESULT: 0.007

QUERY: Give reported amyloid nucleation score value for `NRLSELGPCFHLFTSV`
RESULT: 0.089

QUERY: Give reported amyloid nucleation score value for `RNAKMMTSSLVYNWFVFAER`
RESULT: 5.35

QUERY: Give reported amyloid nucleation score value for `ICVECSYVYMTGGKV`
RESULT: 3.79

QUERY: Give reported amyloid nucleation score value for `DPFSHGEASEWAHLIVSTCT`
RESULT: 0.408

QUERY: Give reported amyloid nucleation score value for `PHHWTQWSVKMSGFRSLLRR`
RESULT: 1.19

QUERY: Give reported amyloid nucleation score value for `WASLGYTCFGKVRRWAPGTH`
RESULT: 0.371

QUERY: Give reported amyloid nucleation score value for `VSAKVFSGGKESVMMCWPPL`
RESULT: 1.58

QUERY: Give reported amyloid nucleation score value for `VDNIVHMWDRNWSPGRYMDR`
RESULT: -0.679

QUERY: Give reported amyloid nucleation score value for `SLPAENSFIEF`
RESULT: -1.25

QUERY: Give reported amyloid nucleation score value for `IISENAYCLPMIMT`
RESULT: -0.437

* * *

# amyloid nucleation score annotations
Test: amyloid nucleation score (Sup35N fusion, yeast selection) (log enrichment); library NNK2; higher = more nucleation; inactive = no reads after selection
Form rule: numeric answer, no unit written next to it.

| substance | reported |
| --- | --- |
| RGYACCL | -0.574 |
| ERIFGFI | -1.45 |
| LMQVSA | 0.829 |
| PPWCLNVCDMLRRSHLAFKR | -0.213 |
| LRGLCRVHWRSERAQSMRPG | 0.892 |
| ISDLCNASGWIRKDTSSRRL | -0.27 |
| LYVSFDYGAQRVHYSTAYVK | -0.013 |
| VFCSSRFCIEECGC | -0.453 |

QUERY: Give reported amyloid nucleation score value for `RISLERGNDFVTWVVYMKWA`
RESULT: -0.081

QUERY: Give reported amyloid nucleation score value for `ESRIYYVKQYSCLSTLTMVR`
RESULT: -0.283

QUERY: Give reported amyloid nucleation score value for `SRKNRSRVSTTISR`
RESULT: -0.731

QUERY: Give reported amyloid nucleation score value for `SMYSYHHSYRSDTKTSNFFW`
RESULT: 3.4

QUERY: Give reported amyloid nucleation score value for `NDKSFSMLATE`
RESULT: 0.707

QUERY: Give reported amyloid nucleation score value for `CGMISLSSNVMSFALPFLYY`
RESULT: 0.824

QUERY: Give reported amyloid nucleation score value for `CLFSILLVMIPASFYTAMWL`
RESULT: -0.588

QUERY: Give reported amyloid nucleation score value for `KFNCLGLWDEYHNSM`
RESULT: 0.259

* * *

Assay: amyloid nucleation score (Sup35N fusion, yeast selection) (log enrichment); library NNK2; higher = more nucleation; inactive = no reads after selection
Quick rule for you: amyloid nucleation score at 1 or higher means yes, lower means no.

Example entries begin here.
| substance | classification |
| --- | --- |
| PSGGFTTSMVTDDIDVSARH | no |
| VTVSVGSLYTNFATPKDRMV | no |

QUERY: # check: amyloid nucleation score of `RAATYYQFVVLVCKQSDFKR` is greater than or equal to 1
RESULT: yes

QUERY: # check: amyloid nucleation score of `GKLSGTPWTLSGATKRALLY` is greater than or equal to 1
RESULT: no

QUERY: # check: amyloid nucleation score of `TIYPFYEKRMRY` is greater than or equal to 1
RESULT: no

QUERY: # check: amyloid nucleation score of `CKFWYLARWWIFLWSPRYK` is greater than or equal to 1
RESULT: no

QUERY: # check: amyloid nucleation score of `AQWCEGVVSLQLSWVVCVEG` is greater than or equal to 1
RESULT: yes

QUERY: # check: amyloid nucleation score of `RYRHLTFLVFCIAVPVGFWR` is greater than or equal to 1
RESULT: yes

QUERY: # check: amyloid nucleation score of `EGCRMLNIYLPDFLSFLDTG` is greater than or equal to 1
RESULT: no

QUERY: # check: amyloid nucleation score of `RMSIWRFRMSLAQDGLGRFQ` is greater than or equal to 1
RESULT: yes

QUERY: # check: amyloid nucleation score of `LTVLFVLTVCFNVAMGCCLS` is greater than or equal to 1
RESULT: no

QUERY: # check: amyloid nucleation score of `YGQMVLRPFDTFVARQ` is greater than or equal to 1
RESULT: no

QUERY: # check: amyloid nucleation score of `PMEWKPALPKTIVADARMRG` is greater than or equal to 1
RESULT: no

QUERY: # check: amyloid nucleation score of `FVLHIMRLSCYCE` is greater than or equal to 1
RESULT: no

QUERY: # check: amyloid nucleation score of `YATKFN` is greater than or equal to 1
RESULT: no

QUERY: # check: amyloid nucleation score of `FGTRHYLYSTSHHAHLGVDM` is greater than or equal to 1
RESULT: yes

QUERY: # check: amyloid nucleation score of `YWKPCLVAVGWSTQLRCCPV` is greater than or equal to 1
RESULT: no

QUERY: # check: amyloid nucleation score of `NVLDASRNLE` is greater than or equal to 1
RESULT: yes

QUERY: # check: amyloid nucleation score of `CLSFIILMWLDRNVGMVQI` is greater than or equal to 1
RESULT: no

QUERY: # check: amyloid nucleation score of `LLTYYFVLTLVPSMFTSFVF` is greater than or equal to 1
RESULT: yes

QUERY: # check: amyloid nucleation score of `CGRVTTFSLRNVARVCVSAF` is greater than or equal to 1
RESULT: no

QUERY: # check: amyloid nucleation score of `FFDSSCIFITHLL` is greater than or equal to 1
RESULT: yes

QUERY: # check: amyloid nucleation score of `LGGGHKMDLFCYMISIWYYM` is greater than or equal to 1
RESULT: yes

QUERY: # check: amyloid nucleation score of `SEAKGYLIWGFLWLFGYDFE` is greater than or equal to 1
RESULT: no

QUERY: # check: amyloid nucleation score of `HDMRHYKGSPYYLNYWYGDG` is greater than or equal to 1
RESULT: no

QUERY: # check: amyloid nucleation score of `ISPISEQHMLSLTSYEP` is greater than or equal to 1
RESULT: yes
